- assay_target: T1, human CAPRIN-1 on the cell membrane surface of human cancer cells (human, UniProt Q14444 2-709)
- T1 construct: whole, on cells
- T1 sequence (looked up): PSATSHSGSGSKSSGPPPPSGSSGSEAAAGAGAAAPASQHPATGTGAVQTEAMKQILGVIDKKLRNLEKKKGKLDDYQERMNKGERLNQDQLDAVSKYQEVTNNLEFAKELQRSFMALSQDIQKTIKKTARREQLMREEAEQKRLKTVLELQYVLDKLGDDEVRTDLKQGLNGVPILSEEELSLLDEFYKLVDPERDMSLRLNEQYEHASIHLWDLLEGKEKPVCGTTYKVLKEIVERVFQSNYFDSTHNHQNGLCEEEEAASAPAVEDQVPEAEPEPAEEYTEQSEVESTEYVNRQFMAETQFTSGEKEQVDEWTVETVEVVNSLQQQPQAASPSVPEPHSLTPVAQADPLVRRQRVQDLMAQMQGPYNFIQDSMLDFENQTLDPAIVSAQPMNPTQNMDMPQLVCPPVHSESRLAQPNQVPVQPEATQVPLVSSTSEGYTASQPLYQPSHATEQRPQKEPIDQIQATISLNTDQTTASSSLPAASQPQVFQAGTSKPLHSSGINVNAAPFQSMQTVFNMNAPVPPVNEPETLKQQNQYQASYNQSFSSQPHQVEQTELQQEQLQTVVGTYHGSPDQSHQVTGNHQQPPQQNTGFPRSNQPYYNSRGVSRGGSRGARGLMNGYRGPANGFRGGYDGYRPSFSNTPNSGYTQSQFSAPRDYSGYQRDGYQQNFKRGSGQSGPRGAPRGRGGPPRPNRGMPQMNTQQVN
- assay_summary: flow cytometry, BT474 cells
readout: binding result

Conjugate 46 (antibody, human IgG1, V domains shown, human IgG1 constant regions; also called conjugate with MMAE using humanized antibody #40) VH: EVQLVESGGGLVQPGGSLRLSCAASGFSLSSHSLGWVRQAPGKGLEWIGDIRSGGSAYYANWAKGRFTISRDNSKNTLYLQMNSLRAEDTAVYYCTRTNGPSDLTNRLDLWGQGTLVTVSS VL: EIVLTQSPSSLSASVGDRVTINCQASQSLYNNENLAWFQQKPGKVPKRLIYGASTLASGVSSRFSGSGSGTEFTLTISNLQPEDFATYYCLGEFSCGSADCFAFGGGTKVEIK
binds
Conjugate 19 (antibody, human IgG1, V domains shown, human IgG1 constant regions; also called conjugate with MMAE using humanized antibody #13) VH: GAELVRSGASVKMSCKASGYSFTDYNMYWVKQTPGQGLEWIGYIYPGNGGTNYNQKFKGKATLTADTSSSTAYMQISSLTSEDSAVYFCARDYDDGGYAMDYWGQGTTVTVSS VL: DIQMTQSPASLSASVGETVTITCRASGNIHNYLTWYQQKQGKSPQLLVYNAKTLADGVPSRFSGSGSGTQYSLKINRLQPEDFGSYYCQHFWNIPWTFGGGTKLNSR
binds
Conjugate 88 (antibody, V domains shown, human IgG1 constant regions; also called conjugate with MMAE using humanized antibody #2) VH: EQSLVESGGGLVQPGGSLRLSCAASGFSLSSHSLGWVRQAPGKGLEWIGDIRSGGSAYYANWAKGRFTISRDNSKNTLYLQMNSLRAEDTAVYYCTRTNGPSDLTNRLDLWGQGTLVTVSS VL: QVLTQSPSSLSASVGDRVTINCQASQSLYNNENLAWFQQKPGKVPKRLIYGASTLASGVSSRFSGSGSGTEFTLTISSLQCEDFAIYYCLGEFSCGSADCFAFGGGTKVEIK
binds

Data provenance is patent US20250281630A1.
